Measured values drawn from patent US10399966B2 for this set.

- Test system: T. b. brucei
- ASSAY_PROTOCOL: In vitro antitrypanosomal activity against T. brucei (growth inhibition)
- Assay type: cell-based, Trypanosoma brucei
- MEASUREMENT_CONTEXT: Trypanosoma brucei, Table 11; read-out: T. b. brucei EC50
Label criterion met when EC50 is strictly below 200 nM; otherwise label criterion not met.

[
  {
    "COMPOUND": "O=C(Nc1ccc2sc(-c3ccccc3)nc2c1)N1CCCCC1",
    "GROUP": "criterion not met"
  },
  {
    "COMPOUND": "O=C(Nc1ccc2sc(-c3cccc(F)c3F)nc2c1)N1CCCC1",
    "GROUP": "criterion met"
  },
  {
    "COMPOUND": "O=C(Nc1ccc2sc(-c3ccc(F)c(F)c3)nc2c1)N1CCCC1",
    "GROUP": "criterion met"
  },
  {
    "COMPOUND": "O=C(Nc1ccc2sc(-c3ccc(F)c(F)c3)nc2c1)N1C[C@@H](F)[C@H](F)C1",
    "GROUP": "criterion met"
  },
  {
    "COMPOUND": "O=C(Nc1ccc2sc(-c3cccc(F)c3)nc2c1)N1CCCCC1",
    "GROUP": "criterion met"
  },
  {
    "COMPOUND": "O=C(Nc1ccc2sc(-c3ccccc3)nc2c1)N1CCCC1",
    "GROUP": "criterion not met"
  },
  {
    "COMPOUND": "O=C(Nc1ccc2sc(-c3ccc(F)c(F)c3)nc2c1)N1CCCCC1",
    "GROUP": "criterion not met"
  },
  {
    "COMPOUND": "O=C(Nc1ccc2sc(-c3ccccc3F)nc2c1)N1CCCC1",
    "GROUP": "criterion not met"
  },
  {
    "COMPOUND": "O=C(Nc1ccc2sc(-c3ccc(F)c(F)c3)nc2c1)N1CCC(F)C1 (racemic)",
    "GROUP": "criterion met"
  },
  {
    "COMPOUND": "O=C(Nc1ccc2sc(-c3ccc(F)c(F)c3)nc2c1)N1CCC(F)(F)C1",
    "GROUP": "criterion not met"
  }
]

---

- ASSAY_PROTOCOL: Metabolic stability in human liver microsomes
- Type: in vitro ADME
- MEASUREMENT_CONTEXT: Table 12; 37° C., NADPH (1 mM), microsomes 0.5 mg/mL, test compounds 1.5 μM
ATTRIBUTE_MEASURED: Human microsomes t1/2 (min)

[
  {
    "COMPOUND": "O=C(Nc1ccc2sc(-c3cccc(F)c3)nc2c1)N1CCCC1 [Compound 6]",
    "VALUE_REPORTED": 37
  },
  {
    "COMPOUND": "O=C(Nc1ccc2sc(-c3ccccc3)nc2c1)N1CCCC1 [Compound 7]",
    "VALUE_REPORTED": 30
  },
  {
    "COMPOUND": "O=C(Nc1ccc2oc(-c3ccccc3)nc2c1)c1ccccc1 [Compound 15, 5-Benzamido-2-phenylbenzoxazole]",
    "VALUE_REPORTED": 60
  },
  {
    "COMPOUND": "O=C(Nc1ccc2sc(-c3cccc(F)c3)nc2c1)N1CCCCC1 [Compound 29]",
    "VALUE_REPORTED": 8.9
  }
]

---

- Tested on: T. b. brucei
- ASSAY_PROTOCOL: In vitro antitrypanosomal activity against T. brucei (growth inhibition)
- Assay type: cell-based, Trypanosoma brucei
- MEASUREMENT_CONTEXT: Trypanosoma brucei, Table 11; read-out: T. b. brucei EC50
Class boundaries, taken from values of EC50, are as follows: one = under 200 nM, two = from 200 nM up to 400 nM, three = 400 nM and over

[
  {
    "COMPOUND": "O=C(Nc1ccc2sc(-c3cccc(F)c3)nc2c1)N1CCCC1",
    "GROUP": "one"
  },
  {
    "COMPOUND": "O=C(Nc1ccc2sc(-c3ccc(F)c(F)c3)nc2c1)N1CC[C@H](F)C1",
    "GROUP": "one"
  },
  {
    "COMPOUND": "O=C(Nc1ccc2sc(-c3ccccc3)nc2c1)c1cccs1",
    "GROUP": "three"
  },
  {
    "COMPOUND": "O=C(Nc1ccc2sc(-c3ccccc3F)nc2c1)N1CCCCC1",
    "GROUP": "three"
  },
  {
    "COMPOUND": "O=C(Nc1ccc2sc(-c3ccc(F)cc3)nc2c1)N1CCCCC1",
    "GROUP": "three"
  },
  {
    "COMPOUND": "O=C(Nc1ccc2sc(-c3ccc(F)c(F)c3)nc2c1)N1CCC(F)CC1",
    "GROUP": "two"
  },
  {
    "COMPOUND": "O=C(Nc1ccc2sc(-c3ccc(F)c(F)c3)nc2c1)N1CC[C@@H](F)C1",
    "GROUP": "two"
  },
  {
    "COMPOUND": "N=C(N)c1ccc(OCCCCCOc2ccc(C(=N)N)cc2)cc1 [penth, Pentamidine, reference compound]",
    "GROUP": "one"
  },
  {
    "COMPOUND": "O=C(Nc1ccc2sc(-c3ccc(F)cc3)nc2c1)N1CCCC1",
    "GROUP": "two"
  }
]

---

- ASSAY_PROTOCOL: Distribution between mouse plasma and brain (brain penetration, ip)
- Assay type: in vivo
- MEASUREMENT_CONTEXT: mouse, brain and plasma, intraperitoneal, 5 mg/kg, Table 7; groups of 3 mice; read-out: Average brain/plasma ratio

[
  {
    "COMPOUND": "O=C(Nc1ccc2sc(-c3ccc(F)c(F)c3)nc2c1)N1CCCC1 [Compound 2]",
    "Kp at 1 h": 1.81
  },
  {
    "COMPOUND": "O=C(Nc1ccc2sc(-c3cccc(F)c3F)nc2c1)N1CCCC1 [Compound 5]",
    "Kp at 1 h": 1.76
  },
  {
    "COMPOUND": "O=C(Nc1ccc2sc(-c3cccc(F)c3)nc2c1)N1CCCC1 [Compound 6]",
    "Kp at 1 h": 1.01
  },
  {
    "COMPOUND": "O=C(Nc1ccc2sc(-c3ccccc3)nc2c1)N1CCCC1 [Compound 7]",
    "Kp at 1 h": 1.24
  },
  {
    "COMPOUND": "O=C(Nc1ccc2oc(-c3ccccc3)nc2c1)N1CCCC1 [Compound 8, 2-Phenyl-5-N-pyrrolidylamidobenzoxazole]",
    "Kp at 1 h": 1.58
  }
]

---

- Tested on: T. b. brucei
- ASSAY_PROTOCOL: In vitro antitrypanosomal activity against T. brucei (growth inhibition)
- Format: cell-based, Trypanosoma brucei
- MEASUREMENT_CONTEXT: Trypanosoma brucei; Table 9; read-out: T. brucei EC50
ATTRIBUTE_MEASURED: log10 of EC50 (log10 of the value in nM)

[
  {
    "COMPOUND": "O=C(Nc1ccc2sc(-c3ccc(F)cc3F)nc2c1)N1CCCC1 [Compound 34]",
    "VALUE_REPORTED": 2.97
  },
  {
    "COMPOUND": "O=C(Nc1ccc2sc(-c3cccc(F)c3)nc2c1)c1ccccc1 [Compound 28]",
    "VALUE_REPORTED": 3.25
  },
  {
    "COMPOUND": "NC1CCN(C(=O)Nc2ccc3sc(-c4ccc(F)c(F)c4)nc3c2)C1 (stereo not drawn) [Compound 37]",
    "VALUE_REPORTED": 3.37
  },
  {
    "COMPOUND": "O=C(Nc1ccc2sc(-c3ccc(F)c(F)c3)nc2c1)N1CC[C@@H](F)C1 [Compound 4]",
    "VALUE_REPORTED": 2.51
  },
  {
    "COMPOUND": "O=C(Nc1ccc2sc(-c3ccc(F)c(F)c3)nc2c1)N1CCC(C(F)(F)F)C1 (stereo not drawn) [Compound 10]",
    "VALUE_REPORTED": 3.23
  },
  {
    "COMPOUND": "O=C(Nc1ccc2sc(-c3cccc(F)c3)nc2c1)N1CCCCC1 [Compound 29]",
    "VALUE_REPORTED": 2.24
  },
  {
    "COMPOUND": "O=C(Nc1ccc2oc(-c3ccccc3)nc2c1)N1CCCC1 [Compound 8, 2-Phenyl-5-N-pyrrolidylamidobenzoxazole]",
    "VALUE_REPORTED": 3.72
  },
  {
    "COMPOUND": "O=C(Nc1ccc2sc(-c3ccccc3)nc2c1)c1nccs1 [Compound 20]",
    "VALUE_REPORTED": 3.77
  },
  {
    "COMPOUND": "O=C(Nc1ccc2sc(-c3ccccc3F)nc2c1)N1CCCC1 [Compound 32]",
    "VALUE_REPORTED": 2.99
  }
]

---

- ASSAY_PROTOCOL: Distribution between mouse plasma and brain (brain penetration, ip)
- Assay type: in vivo
- MEASUREMENT_CONTEXT: mouse, in vivo, 5 mg/kg, Table 2; mouse, n = 3; read-out: Average concentration in brain
ATTRIBUTE_MEASURED: concentration at 1 h (µM)

[
  {
    "GIVEN_SMILES": "O=C(Nc1ccc2sc(-c3ccc(F)c(F)c3)nc2c1)N1CC[C@H](F)C1",
    "UNIT_TAG": "µM",
    "VALUE_REPORTED": 9.07
  }
]
